- Test system: SR
- test.method.notes: NCI tumour cell line growth inhibition, 48 h
Activity calls are given as the source filed them. No stated cut-off is given here; in the data, active = GI50 up to about 1.1 µM and inactive = higher.
Form entry, call: pick from label 1 for active, label 0 for inactive

Qu. Test call for this compound, please: C[C@H]1CC[P+](Cc2ccccc2)(c2ccccc2)C1 (stereo partly drawn)
Ans. label 0

Qu. Test call for this compound, please: COC(=O)C(CCS(=O)(=O)CC(=O)C(=O)Nc1cccc(C(C)=O)c1)C(=O)OC
Ans. label 0

Qu. Test call for this compound, please: Cn1cc2c3ccccc3nc-2c2ccccc21 [ISOCRYPTOLEPINE]
Ans. label 1

Qu. Test call for this compound, please: CC(=O)OC1CC2(C)C(OC(C)=O)CC1C2(C)C (stereo not drawn)
Ans. label 0

Qu. Test call for this compound, please: CC(C)=CCOc1ccc(-c2coc3cc4c(c(O)c3c2=O)C=CC(C)(C)O4)cc1
Ans. label 0

Qu. Test call for this compound, please: C[n+]1c(-c2ccc(/C=N/NC(=O)C(=O)N/N=C/c3ccc(-c4cn5ccsc5[n+]4C)cc3)cc2)cn2ccsc21
Ans. label 0

Qu. Test call for this compound, please: c1ccc(C2=NC3OC2c2ccccc23)cc1 (stereo not drawn)
Ans. label 0

Qu. Test call for this compound, please: COc1ccc(-n2sc3ncccc3c2=O)cc1
Ans. label 0

Qu. Test call for this compound, please: O=S(=O)(O)c1cc(O)c(/N=N/c2ccc(O)cc2O)c2ccccc12
Ans. label 0

Qu. Test call for this compound, please: C1=N\CCOCC/N=C\c2ccc(cc2)OCc2cccc(n2)COc2ccc/1cc2
Ans. label 0

Qu. Test call for this compound, please: CC1(C)[N+]([O-])=[N+]([O-])C1(C)O (stereo not drawn)
Ans. label 0

Qu. Test call for this compound, please: O=C(O)COc1cccc2ccccc(=O)c12
Ans. label 0

Qu. Test call for this compound, please: COc1cc([C@H]2c3[nH]c4ccccc4c3C[C@H]3COC(=O)N32)cc(OC)c1O
Ans. label 1

Qu. Test call for this compound, please: O=C1NC(Cc2ccc(O)cc2)C(=O)N2CCCC12 (stereo not drawn)
Ans. label 0

Qu. Test call for this compound, please: CCOC(=O)[C@H]1C[C@@H](C(=O)c2ccccc2)N2N=C(c3ccc(Br)cc3)C=C[C@H]12
Ans. label 0

Qu. Test call for this compound, please: Nc1c(C(=O)O)nnc2cc(Cl)c(Cl)cc12
Ans. label 0

Qu. Test call for this compound, please: O=c1n(CC2CS2)c2ccccc2n1CC1CS1 (stereo not drawn)
Ans. label 0

Qu. Test call for this compound, please: CC[C@@]12CCCN3CC[C@]4(c5cccc(OC)c5N(C(C)=O)[C@@H]4CC1)[C@H]32
Ans. label 0

Qu. Test call for this compound, please: CN(C)Cc1cc(C(=O)/C=C/c2ccc(Cl)cc2)cc(CN(C)C)c1O
Ans. label 0

Qu. Test call for this compound, please: CCOC(=O)c1oc2ccc(OC)c3c2c1CCC3
Ans. label 0

Qu. Test call for this compound, please: Cc1ccc2c(c1)CNc1ccc(C)cc1CN2
Ans. label 0

Qu. Test call for this compound, please: N#Cc1nc(CCC(c2nc(C#N)c(N)o2)N2C(=O)c3ccccc3C2=O)oc1N (stereo not drawn)
Ans. label 1

Qu. Test call for this compound, please: COC(=O)C1C(=O)NC2(C)CC1c1ccccc1O2 (stereo not drawn)
Ans. label 0
